I'd appreciate it if you could supply IC50 values for the items below.
Molecular target: Isocitrate lyase (Candida albicans)
Sequence (Q9P8Q7 whole entry): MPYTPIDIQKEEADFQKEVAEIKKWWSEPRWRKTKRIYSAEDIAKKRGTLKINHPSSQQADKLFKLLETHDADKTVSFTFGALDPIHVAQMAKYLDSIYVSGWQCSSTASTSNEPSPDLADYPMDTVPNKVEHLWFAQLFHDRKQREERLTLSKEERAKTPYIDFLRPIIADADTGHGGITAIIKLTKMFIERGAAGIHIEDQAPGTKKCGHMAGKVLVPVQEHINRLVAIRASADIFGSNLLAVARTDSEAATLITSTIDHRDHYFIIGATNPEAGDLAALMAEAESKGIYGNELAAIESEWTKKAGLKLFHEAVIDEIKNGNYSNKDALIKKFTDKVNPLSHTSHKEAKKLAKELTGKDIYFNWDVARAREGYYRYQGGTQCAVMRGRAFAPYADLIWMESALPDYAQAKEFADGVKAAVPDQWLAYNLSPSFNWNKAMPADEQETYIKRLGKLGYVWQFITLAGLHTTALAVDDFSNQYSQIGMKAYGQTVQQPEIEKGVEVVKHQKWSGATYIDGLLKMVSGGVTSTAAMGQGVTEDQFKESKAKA
Test: Inhibition of Candida albicans ATCC 10231 isocitrate lyase by spectrophotometric analysis
One number for each entry, in µM.

Batch lookup, IC50 per entry.
1. COc1c(Br)cc([C@H](O)C2=C(c3ccc(O)c(Br)c3)/C(=C/c3ccc(O)c(Br)c3)OC2=O)cc1Br [CADIOLIDE G]
2. COC(=O)C1=C(c2cc(Br)c(O)c(Br)c2)C(=O)OC1=C(c1cc(Br)c(O)c(Br)c1)c1cc(Br)c(O)c(Br)c1 [CADIOLIDE I]
3. O=C1O/C(=C\c2cc(Br)c(O)c(Br)c2)C(c2ccc(O)c(Br)c2)=C1C(=O)c1cc(Br)c(O)c(Br)c1 [CADIOLIDE E]
4. O=C(O)CC[N+](=O)[O-]

Found:
1. 49.8
2. 10.8
3. 8.9
4. 53.9

Batch lookup, IC50 per entry.
1. COC(=O)C(C(=O)c1cc(Br)c(O)c(Br)c1)=C(C(=O)OC)c1cc(Br)c(O)c(Br)c1
2. COC(=O)C(C(=O)c1cc(Br)c(O)c(Br)c1)=C(C(=O)OC)c1ccc(O)c(Br)c1

Found:
26.3
47.6

###

Assay: Inhibition of SortaseA
pIC50: −log10 of the molar value.
REPORTED_PROPERTY: pIC50

Worked examples follow.
1) COc1c(Br)cc([C@H](O)C2=C(c3ccc(O)c(Br)c3)/C(=C/c3ccc(O)c(Br)c3)OC2=O)cc1Br [CADIOLIDE G]    < 3.92
2) COC(=O)C(C(=O)c1cc(Br)c(O)c(Br)c1)=C(C(=O)OC)c1ccc(O)c(Br)c1    < 3.92
3) COC(=O)C1=C(c2cc(Br)c(O)c(Br)c2)C(=O)OC1=C(c1cc(Br)c(O)c(Br)c1)c1cc(Br)c(O)c(Br)c1 [CADIOLIDE I]    < 3.92
4) COC(=O)C(C(=O)c1cc(Br)c(O)c(Br)c1)=C(C(=O)OC)c1cc(Br)c(O)c(Br)c1    < 3.92
5) COc1ccc(C=C2OC(=O)C([C@@H](O)c3cc(Br)c(OC)c(Br)c3)=C2c2cc(Br)c(O)c(Br)c2)cc1    < 3.92

Next:
Lookup: Data request, read-out pIC50, for O=C1O/C(=C\c2cc(Br)c(O)c(Br)c2)C(c2ccc(O)c(Br)c2)=C1C(=O)c1cc(Br)c(O)c(Br)c1 [CADIOLIDE E]
Found: 4.10
